# ASSAY_NAME: Stability of the compounds in rat plasma (LC-MS validation)
# Type: in vitro ADME
# DETAILS: rat plasma, long-term stability (-80℃,15 days), low spiked level (LQC, 5-30 ng/mL)
Record form. Attribute: Stability, RE. Fill in for each entry.
Answers are plain numbers, in %.

Previously resolved entries follow.
O=C(O)c1ccc(O)c(O)c1 : -9.72
O=C(/C=C/c1ccc(O)c(O)c1)OC1[C@H](O)CC(O)(C(=O)O)C[C@H]1O (stereo partly shown) : 17.58

# per-item lookup of Stability, RE; items listed below
1. COc1cc(/C=C/CO)cc(OC)c1O[C@@H]1O[C@H](CO)[C@@H](O)[C@H](O)[C@H]1O [EB, eleutheroside B]
2. C=C[C@@H]1C2=CCOC(=O)C2=CO[C@H]1O[C@@H]1O[C@H](CO)[C@@H](O)[C@H](O)[C@H]1O [GPS, gentiopicroside]

1: -8.20; 2: 12.72

====

# ASSAY_NAME: Multi-component PK in rats after i.v. administration of ASEP
# Type: in vivo, Sprague-Dawley rats
# DETAILS: male, Sprague-Dawley, rat, in vivo, iv, 1.76 ml/kg; read-out: AUC0-t
MEASUREMENT_LABEL: AUC(0-t)

Entry COc1cc(/C=C/CO)cc(OC)c1O[C@@H]1O[C@H](CO)[C@@H](O)[C@H](O)[C@H]1O [EB, eleutheroside B] : reported AUC(0-t) = ?
3040 ng·h/mL

====

# ASSAY_NAME: Multi-component PK in rats after i.v. administration of ASEP
# Assay type: in vivo, Sprague-Dawley rats
# DETAILS: male, Sprague-Dawley, rat, plasma, iv, 3.52 ml/kg, rat plasma, High group: single i.v. 3.52 ml/kg of 5 times concentrated ASEP, mean ± SD, n=3; read-out: AUC0-∞
MEASUREMENT_LABEL: AUC(0-inf) (ng·h/mL)
Numbers only, in ng·h/mL.

O=C(O)c1ccc(O)c(O)c1 : 310

Entry O=C(/C=C/c1ccc(O)c(O)c1)O[C@@H]1C[C@](O)(C(=O)O)C[C@@H](O)[C@H]1O : reported AUC(0-inf) = ?
3420

====

# ASSAY_NAME: Multi-component PK in rats after i.v. administration of ASEP
# Assay type: in vivo, Sprague-Dawley rats
# DETAILS: male, Sprague-Dawley, rat, plasma, iv, 3.52 ml/kg, rat plasma, High group: single i.v. 3.52 ml/kg of 5 times concentrated ASEP, mean ± SD, n=3; read-out: Cl (converted)
MEASUREMENT_LABEL: clearance (mL/min)
Numbers only, in mL/min.

O=C(O)c1ccc(O)c(O)c1 : 126

# ---- query molecule ----
Entry O=C(/C=C/c1ccc(O)c(O)c1)O[C@@H]1C[C@](O)(C(=O)O)C[C@@H](O)[C@H]1O : reported clearance = ?
9

====

Record form. Attribute: AUC(0-t). Fill in for each entry.
# ASSAY_NAME: Multi-component PK in rats after i.v. administration of ASEP
# Type: in vivo, Sprague-Dawley rats
# DETAILS: male, Sprague-Dawley, rat, plasma, iv, 1.76 ml/kg, rat plasma, Low group: single i.v. 1.76 ml/kg of 5 times concentrated ASEP, mean ± SD, n=3; read-out: AUC0-t
# Procedure: The animal experiments were conducted in line with the Guide for the Care and Use of Laboratory Animals (published by the USA National Institutes of Health, NIH Publication no. 85-23, revised 1996), which were approved by the Animal Care and Use Committee of the College of Animal Science (College of Bee Science), Fujian Agriculture and Forestry University (Approval Number: […]2019004). […] All rats were acclimated to the facilities and environment for 7 days before the experiments. […]
Give bare numbers, in ng·h/mL.

# per-item lookup of AUC(0-t); items listed below
1. O=C(O)c1ccc(O)c(O)c1
2. O=C(/C=C/c1ccc(O)c(O)c1)O[C@@H]1C[C@](O)(C(=O)O)C[C@@H](O)[C@H]1O

1. 202
2. 1830

====

# ASSAY_NAME: Multi-component PK in rats after i.v. administration of ASEP
# Format: in vivo, Sprague-Dawley rats
# DETAILS: male, Sprague-Dawley, rat, plasma, iv, 1.76 ml/kg, rat plasma, Low group: single i.v. 1.76 ml/kg of 5 times concentrated ASEP, mean ± SD, n=3; read-out: Vd
Record form. Attribute: Vd. Fill in for each entry.
Numbers only, in L.

O=C(O)c1ccc(O)c(O)c1 : 2.91

# ---- query compound ----
Entry O=C(/C=C/c1ccc(O)c(O)c1)O[C@@H]1C[C@](O)(C(=O)O)C[C@@H](O)[C@H]1O : reported Vd = ?
0.26

====

# ASSAY_NAME: Multi-component PK in rats after i.v. administration of ASEP
# Assay type: in vivo, Sprague-Dawley rats
# DETAILS: male, Sprague-Dawley, rat, in vivo, iv, 3.52 ml/kg; read-out: t 1/2 (converted)
MEASUREMENT_LABEL: half-life (h)
Answers are plain numbers, in h.

Entry COc1cc(/C=C/CO)cc(OC)c1O[C@@H]1O[C@H](CO)[C@@H](O)[C@H](O)[C@H]1O [EB, eleutheroside B] : reported half-life = ?
3.17

====

# ASSAY_NAME: Stability of the compounds in rat plasma (LC-MS validation)
# Assay type: in vitro ADME
# DETAILS: rat plasma, 6h at room temperature, low spiked level (LQC, 5-30 ng/mL)
MEASUREMENT_LABEL: Stability, RE (%)
Answers are plain numbers, in %.

O=C(O)c1ccc(O)c(O)c1 [PCA, protocatechuic acid] : -6.60
COc1cc(/C=C/CO)cc(OC)c1O[C@@H]1O[C@H](CO)[C@@H](O)[C@H](O)[C@H]1O [EB, eleutheroside B] : -5.59
O=C(/C=C/c1ccc(O)c(O)c1)OC1[C@H](O)CC(O)(C(=O)O)C[C@H]1O (stereo partly shown) [4-CQA] : -6.42

# ---- query compound ----
Entry C=C[C@@H]1C2=CCOC(=O)C2=CO[C@H]1O[C@@H]1O[C@H](CO)[C@@H](O)[C@H](O)[C@H]1O [GPS, gentiopicroside] : reported Stability, RE = ?
-10.12

====

# ASSAY_NAME: Multi-component PK in rats after i.v. administration of ASEP
# Format: in vivo, Sprague-Dawley rats
# DETAILS: male, Sprague-Dawley, rat, in vivo, iv, 1.76 ml/kg; read-out: AUC0-∞
MEASUREMENT_LABEL: AUC(0-inf) (ng·h/mL)
One number for each entry, in ng·h/mL.

Entry COc1cc(/C=C/CO)cc(OC)c1O[C@@H]1O[C@H](CO)[C@@H](O)[C@H](O)[C@H]1O [EB, eleutheroside B] : reported AUC(0-inf) = ?
3060

====

# ASSAY_NAME: Stability of the compounds in rat plasma (LC-MS validation)
# Assay type: in vitro ADME
# DETAILS: rat plasma, freeze-thaw stability (three cycles), low spiked level (LQC, 5-30 ng/mL)
Record form. Attribute: Stability, RE. Fill in for each entry.

# per-item lookup of Stability, RE; items listed below
1. O=C(/C=C/c1ccc(O)c(O)c1)OC1[C@H](O)CC(O)(C(=O)O)C[C@H]1O (stereo partly shown) [4-CQA]
2. C=C[C@@H]1C2=CCOC(=O)C2=CO[C@H]1O[C@@H]1O[C@H](CO)[C@@H](O)[C@H](O)[C@H]1O [GPS, gentiopicroside]
3. O=C(O)c1ccc(O)c(O)c1 [PCA, protocatechuic acid]
4. COc1cc(/C=C/CO)cc(OC)c1O[C@@H]1O[C@H](CO)[C@@H](O)[C@H](O)[C@H]1O [EB, eleutheroside B]

1: 19.90%; 2: 14.78%; 3: -0.31%; 4: 4.10%

====

# ASSAY_NAME: Multi-component PK in rats after i.v. administration of ASEP
# Assay type: in vivo, Sprague-Dawley rats
# DETAILS: male, Sprague-Dawley, rat, in vivo, iv, 3.52 ml/kg; read-out: Vd
MEASUREMENT_LABEL: Vd (L)
Numbers only, in L.

Entry COc1cc(/C=C/CO)cc(OC)c1O[C@@H]1O[C@H](CO)[C@@H](O)[C@H](O)[C@H]1O [EB, eleutheroside B] : reported Vd = ?
3.38

====

# ASSAY_NAME: Multi-component PK in rats after i.v. administration of ASEP
# Type: in vivo, Sprague-Dawley rats
# DETAILS: male, Sprague-Dawley, rat, plasma, iv, 1.76 ml/kg, rat plasma, Low group: single i.v. 1.76 ml/kg of 5 times concentrated ASEP, mean ± SD, n=3; read-out: MRT0-t
MEASUREMENT_LABEL: MRT last (min)
Numbers only, in min.

O=C(/C=C/c1ccc(O)c(O)c1)O[C@@H]1C[C@](O)(C(=O)O)C[C@@H](O)[C@H]1O : 25.8

# ---- query molecule ----
Entry O=C(O)c1ccc(O)c(O)c1 : reported MRT last = ?
15
